B1: MIA2 (parent)
chain: NSISSDKEATVPCTEILTEKKDTI

- Variants of: B1
- TEST DETAILS: protein stability index of a GFP-peptide fusion (GPS, HEK-293T) (PSI 1-6); higher = more stable;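 note: lentivirally expressed fusions sorted by FACS into six bins by GFP to DsRed ratio, PSI derived from sequencing read proportions per bin multiplied by bin number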
- STUDY CONDITIONS: c terminus: a fixed tail appended
METRIC: protein stability index
When you answer, write just the number.

Q) I have this variant here, `NSISSDKEATVPCTEILTHKKDTI` , and I need its recorded protein stability index.
A) 5.03

Q) I have this variant here, `NSISSDKEATVPPTEILTEKKDTI` , and I need its recorded protein stability index.
A) 5.35

Q) I have this variant here, `HSISSDKEATVPCTEILTEKKDTI` , and I need its recorded protein stability index.
A) 5.44

Q) I have this variant here, `NSISSDQEATVPCTEILTEKKDTI` , and I need its recorded protein stability index.
A) 5.25

Q) I have this variant here, `NSISSDMEATVPCTEILTEKKDTI` , and I need its recorded protein stability index.
A) 4.95

Q) I have this variant here, `NSISGDKEATVPCTEILTEKKDTI` , and I need its recorded protein stability index.
A) 5.42

Q) I have this variant here, `NSISSDKEATVPCTEILTSKKDTI` , and I need its recorded protein stability index.
A) 5.3

Q) I have this variant here, `NSISSDKEATVPCTEILTEKKWTI` , and I need its recorded protein stability index.
A) 3.49

Q) I have this variant here, `NSISSDKEATVPCTEILTELKDTI` , and I need its recorded protein stability index.
A) 4.94

Q) I have this variant here, `NSISSDKEATVPCTEILTEKKDVI` , and I need its recorded protein stability index.
A) 5.32

Q) I have this variant here, `NSISSDKEATMPCTEILTEKKDTI` , and I need its recorded protein stability index.
A) 5.59

Q) I have this variant here, `NSISSDIEATVPCTEILTEKKDTI` , and I need its recorded protein stability index.
A) 5.27

Q) I have this variant here, `NSCSSDKEATVPCTEILTEKKDTI` , and I need its recorded protein stability index.
A) 5.33

Q) I have this variant here, `NSISSDFEATVPCTEILTEKKDTI` , and I need its recorded protein stability index.
A) 4.95

Q) I have this variant here, `NSISSDKEATVPCTEILTIKKDTI` , and I need its recorded protein stability index.
A) 4.72

Q) I have this variant here, `NSISSDKEATHPCTEILTEKKDTI` , and I need its recorded protein stability index.
A) 4.62

Q) I have this variant here, `NSIASDKEATVPCTEILTEKKDTI` , and I need its recorded protein stability index.
A) 5.41

Q) I have this variant here, `NSISSDKEATVPCTEITTEKKDTI` , and I need its recorded protein stability index.
A) 5.71

Q) I have this variant here, `NSISSDKEATVPCTEILTNKKDTI` , and I need its recorded protein stability index.
A) 5.32

Q) I have this variant here, `NSISSDKEATVPCLEILTEKKDTI` , and I need its recorded protein stability index.
A) 4.99

Q) I have this variant here, `NSISSDKEATPPCTEILTEKKDTI` , and I need its recorded protein stability index.
A) 5.55

Q) I have this variant here, `NSILSDKEATVPCTEILTEKKDTI` , and I need its recorded protein stability index.
A) 5.21

Q) I have this variant here, `NSISSDKEATVPCTEILTEKKDFI` , and I need its recorded protein stability index.
A) 4.83

Q) I have this variant here, `NSISSDPEATVPCTEILTEKKDTI` , and I need its recorded protein stability index.
A) 5.62

Q) I have this variant here, `NSISSDKEATVPCTEILTTKKDTI` , and I need its recorded protein stability index.
A) 5.17

Q) I have this variant here, `GSISSDKEATVPCTEILTEKKDTI` , and I need its recorded protein stability index.
A) 5.24

Q) I have this variant here, `NSISSDKEATVPCTEILMEKKDTI` , and I need its recorded protein stability index.
A) 4.89

Q) I have this variant here, `NSISSDKESTVPCTEILTEKKDTI` , and I need its recorded protein stability index.
A) 5.31

Q) I have this variant here, `NSISSDLEATVPCTEILTEKKDTI` , and I need its recorded protein stability index.
A) 5.52

Q) I have this variant here, `NSISSDKEATVPCTEINTEKKDTI` , and I need its recorded protein stability index.
A) 5.4

Q) I have this variant here, `NSISSDKEATVPCAEILTEKKDTI` , and I need its recorded protein stability index.
A) 5.36

Q) I have this variant here, `NSISSDKEATVPCTEILTVKKDTI` , and I need its recorded protein stability index.
A) 5.18

Q) I have this variant here, `NSQSSDKEATVPCTEILTEKKDTI` , and I need its recorded protein stability index.
A) 5.6

Q) I have this variant here, `NSISSDKEATVPCTEILREKKDTI` , and I need its recorded protein stability index.
A) 5.1

Q) I have this variant here, `NSISSDKEATVPCTEILTEPKDTI` , and I need its recorded protein stability index.
A) 5.3

Q) I have this variant here, `NSISSYKEATVPCTEILTEKKDTI` , and I need its recorded protein stability index.
A) 4.71

Q) I have this variant here, `NSISSDKYATVPCTEILTEKKDTI` , and I need its recorded protein stability index.
A) 4.95

Q) I have this variant here, `VSISSDKEATVPCTEILTEKKDTI` , and I need its recorded protein stability index.
A) 5

Q) I have this variant here, `NSISSDKEATVICTEILTEKKDTI` , and I need its recorded protein stability index.
A) 5.11

Q) I have this variant here, `NPISSDKEATVPCTEILTEKKDTI` , and I need its recorded protein stability index.
A) 5.31

Q) I have this variant here, `NSISSDKEATVPCTEILTEKKDTP` , and I need its recorded protein stability index.
A) 5.66

Q) I have this variant here, `NSISSDKEATVPCTEILTESKDTI` , and I need its recorded protein stability index.
A) 5.54

Q) I have this variant here, `NSISSHKEATVPCTEILTEKKDTI` , and I need its recorded protein stability index.
A) 4.89

Q) I have this variant here, `LSISSDKEATVPCTEILTEKKDTI` , and I need its recorded protein stability index.
A) 5.09

Q) I have this variant here, `NSPSSDKEATVPCTEILTEKKDTI` , and I need its recorded protein stability index.
A) 5.36

Q) I have this variant here, `NSISSDKEATVPCTEILTEKKSTI` , and I need its recorded protein stability index.
A) 4.7

Q) I have this variant here, `NSISSDGEATVPCTEILTEKKDTI` , and I need its recorded protein stability index.
A) 5.8

Q) I have this variant here, `NSISSDKEATVPCTEILTEKLDTI` , and I need its recorded protein stability index.
A) 5.42

Q) I have this variant here, `NSGSSDKEATVPCTEILTEKKDTI` , and I need its recorded protein stability index.
A) 5.54

Q) I have this variant here, `NSISSDKEATVPCTEILTEKKRTI` , and I need its recorded protein stability index.
A) 4.89

Q) I have this variant here, `NSISSDKEATVLCTEILTEKKDTI` , and I need its recorded protein stability index.
A) 4.54

Q) I have this variant here, `NSISSDKEATVPCTEILTENKDTI` , and I need its recorded protein stability index.
A) 5.53

Q) I have this variant here, `NSISSDKEATVPCTESLTEKKDTI` , and I need its recorded protein stability index.
A) 5.41

Q) I have this variant here, `NSISSDKEATVPCTEILTEKKDYI` , and I need its recorded protein stability index.
A) 5.1

Q) I have this variant here, `NSISSDKEATVPRTEILTEKKDTI` , and I need its recorded protein stability index.
A) 4.99

Q) I have this variant here, `NSISSDKEATVPSTEILTEKKDTI` , and I need its recorded protein stability index.
A) 5.65

Q) I have this variant here, `NSISSEKEATVPCTEILTEKKDTI` , and I need its recorded protein stability index.
A) 5.63

Q) I have this variant here, `NSISSDKEALVPCTEILTEKKDTI` , and I need its recorded protein stability index.
A) 5.43

Q) I have this variant here, `NVISSDKEATVPCTEILTEKKDTI` , and I need its recorded protein stability index.
A) 5.46

Q) I have this variant here, `NSISSDKEATVPCTEILTEKKDMI` , and I need its recorded protein stability index.
A) 5.33

Q) I have this variant here, `NSISSDKEATNPCTEILTEKKDTI` , and I need its recorded protein stability index.
A) 5.49

Q) I have this variant here, `NSIISDKEATVPCTEILTEKKDTI` , and I need its recorded protein stability index.
A) 4.68

Q) I have this variant here, `NSISVDKEATVPCTEILTEKKDTI` , and I need its recorded protein stability index.
A) 5.46

Q) I have this variant here, `NSISSDKEATVPDTEILTEKKDTI` , and I need its recorded protein stability index.
A) 5.54

Q) I have this variant here, `NSIVSDKEATVPCTEILTEKKDTI` , and I need its recorded protein stability index.
A) 5.32

Q) I have this variant here, `NSISSDKEATVWCTEILTEKKDTI` , and I need its recorded protein stability index.
A) 4.58

Q) I have this variant here, `NSISSTKEATVPCTEILTEKKDTI` , and I need its recorded protein stability index.
A) 5.31

Q) I have this variant here, `NSISSDKEATTPCTEILTEKKDTI` , and I need its recorded protein stability index.
A) 5.67

Q) I have this variant here, `NSISSNKEATVPCTEILTEKKDTI` , and I need its recorded protein stability index.
A) 5.42

Q) I have this variant here, `NSISDDKEATVPCTEILTEKKDTI` , and I need its recorded protein stability index.
A) 5.4

Q) I have this variant here, `NSISSDKEATVPCTEILTEKKDTH` , and I need its recorded protein stability index.
A) 5.45
